biological target: HIF-1α (Homo sapiens, UniProt Q16665); construct: endogenous in cells; host or cells: ARPE-19 (ATCC CRL-2302); assay: Analysis of HIF-1α protein expression (Western blot) in ARPE-19 cells under mixed hypoxic condition; format: cell-based; conditions: mixed hypoxic condition (1% oxygen + CoCl2) for 1 hour, concentration range at which HIF-1α expression is reduced by 50% vs untreated control, read-out: IC50 HIF-1α Hypoxia (1 hour)
Sequence (Q16665 whole entry): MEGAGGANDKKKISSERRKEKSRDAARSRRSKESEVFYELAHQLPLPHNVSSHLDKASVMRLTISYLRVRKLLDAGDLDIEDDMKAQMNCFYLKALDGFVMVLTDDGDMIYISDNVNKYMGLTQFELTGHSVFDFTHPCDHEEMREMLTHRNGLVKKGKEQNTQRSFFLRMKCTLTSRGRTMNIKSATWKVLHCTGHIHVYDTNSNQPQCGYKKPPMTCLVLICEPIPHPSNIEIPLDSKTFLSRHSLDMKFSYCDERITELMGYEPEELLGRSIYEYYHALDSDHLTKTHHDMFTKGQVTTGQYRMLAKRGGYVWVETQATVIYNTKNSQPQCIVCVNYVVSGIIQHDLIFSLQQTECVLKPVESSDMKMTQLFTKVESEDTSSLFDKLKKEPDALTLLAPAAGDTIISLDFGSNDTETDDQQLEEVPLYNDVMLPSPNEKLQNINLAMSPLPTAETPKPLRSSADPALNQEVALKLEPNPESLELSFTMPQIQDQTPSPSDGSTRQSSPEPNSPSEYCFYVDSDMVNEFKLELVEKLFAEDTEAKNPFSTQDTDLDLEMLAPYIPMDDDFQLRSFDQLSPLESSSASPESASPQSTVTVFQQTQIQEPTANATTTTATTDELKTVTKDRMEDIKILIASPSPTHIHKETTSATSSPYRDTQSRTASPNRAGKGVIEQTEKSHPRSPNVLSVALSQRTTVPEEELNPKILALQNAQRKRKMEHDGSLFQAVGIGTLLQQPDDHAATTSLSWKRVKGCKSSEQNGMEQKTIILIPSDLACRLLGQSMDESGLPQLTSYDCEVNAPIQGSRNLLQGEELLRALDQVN
In this section we review reported DC50 values for a set of compounds.

CN1CCC[C@@H]1c1nc2ncnc(C(=O)NCc3cccc(F)c3)c2[nH]1    1 to 10 µM
Cn1cc(-c2cc(F)cc(CNC(=O)c3ncnc4nc(CNC(=O)OCc5ccccc5)[nH]c34)c2)cn1    1 to 10 µM
Cn1c(C2CCCC2)nc2ncnc(C(=O)NCc3cc(F)cc(-c4cnn(-c5ccc(F)cc5)c4)c3)c21    0.1 to 1 µM
CN1CCC(c2nc3ncnc(C(=O)NCc4cc(F)cc(-c5cnn(C)c5)c4)c3[nH]2)CC1    1 to 10 µM

What value of DC50 has been recorded for this entry: `O=C(NCc1cc(F)cc(-c2cnn(-c3ccccn3)c2)c1)c1ncnc2nc(C3CCCC3)[nH]c12` < 0.1 µM

What value of DC50 has been recorded for this entry: `Cn1cc(Nc2cc(F)cc(CNC(=O)c3ncnc4nc(C5CCCC5)[nH]c34)c2)cn1` < 0.1 µM

What value of DC50 has been recorded for this entry: `O=C(NCc1cc(F)cc(Br)c1)c1ncnc2nc(C3CCCC3)[nH]c12` 0.1 to 1 µM

What value of DC50 has been recorded for this entry: `O=C(NCc1cc(F)cc(-c2cnn(-c3cccnc3)c2)c1)c1ncnc2nc(C3CCCC3)[nH]c12` < 0.1 µM

---

test system: VEGF; test: Evaluation of VEGF protein secretion level (Human VEGF ELISA) in ARPE-19 cell medium under hypoxic conditions; assay type: cell-based; conditions: ARPE-19 cells; pretreated 2 hours, 24 hours hypoxic conditions; secreted VEGF in medium supernatant by ELISA; concentration range reducing VEGF by 50% vs untreated control; read-out: IC50 VEGF
In this section we review reported IC50 values for a set of molecules.

N#Cc1cccc(-n2cc(-c3cc(F)cc(CNC(=O)c4ncnc5nc(C6CCCC6)[nH]c45)c3)cn2)c1 [Example 23]    100 to 1000 nM

Observed IC50 on VEGF for O=C(NCc1cc(F)cc(Nc2nnco2)c1)c1ncnc2nc(C3CCCC3)[nH]c12 [Example 134] , please. > 10000 nM

Observed IC50 on VEGF for O=C(NCc1cc(F)cc(-c2cnn(-c3ccc(F)cc3)c2)c1)c1ncnc2nc(C3CCC(F)(F)C3)[nH]c12 (single isomer, unassigned) [84(E1)] , please. < 100 nM

Observed IC50 on VEGF for O=C(NCc1cc(F)cc(-c2cnn(-c3ccc(C(F)(F)F)cc3)c2)c1)c1ncnc2nc(C3CCCC3)[nH]c12 [Example 26] , please. 100 to 1000 nM

Observed IC50 on VEGF for O=C(NCc1cc(F)cc(-c2cnn(-c3ccc(F)cc3)c2)c1)c1ncnc2nc(C34CCC(C3)C4)[nH]c12 [Example 115] , please. 100 to 1000 nM

---

target: HIF-1α (Homo sapiens); construct: endogenous in cells; host or cells: ARPE-19 (ATCC CRL-2302); test: Analysis of HIF-1α protein expression (Western blot) in ARPE-19 cells under mixed hypoxic condition; type: cell-based; settings: values marked * in the table, mixed hypoxic condition (1% oxygen + CoCl2) for 24 hours, concentration range at which HIF-1α expression is reduced by 50% vs untreated control, read-out: IC50 HIF-1α, Hypoxia(24h)
OBSERVATION TYPE: DC50

// solved cases for DC50 follow
Cn1ccc(Nc2cc(F)cc(CNC(=O)c3ncnc4nc(C5CCCC5)[nH]c34)c2)c1 [Example 142]    100 to 1000 nM
NC(=O)c1cccc(-n2cc(-c3cc(F)cc(CNC(=O)c4ncnc5nc(C6CCCC6)[nH]c45)c3)cn2)c1 [Example 37]    < 100 nM
COC(=O)C(Cc1ccc(-n2cc(-c3cc(F)cc(CNC(=O)c4ncnc5nc(C6CCCC6)[nH]c45)c3)cn2)cc1)NC(=O)c1ncnc2nc(C3CCCC3)[nH]c12 (stereo not drawn) [Example 150]    100 to 1000 nM
O=C(NCc1cc(F)cc(-c2cnn(-c3ccc(F)cc3)c2)c1)c1ncnc2nc(C3CC4(CC4)C3)[nH]c12 [Example 111]    < 100 nM
O=C(NCc1cc(F)cc(-c2cnn(C3CCCCC3)c2)c1)c1ncnc2nc(C3CCCC3)[nH]c12 [Example 139]    < 100 nM

Observed DC50 on HIF-1α (Homo sapiens) for O=C(NCc1cc(F)cc(-c2cnn(-c3ccc(F)cc3)c2)c1)c1ncnc2nc([C@H]3CCCO3)[nH]c12 [Example 85] , please. < 100 nM

Observed DC50 on HIF-1α (Homo sapiens) for O=C(NCc1cc(F)cc(-c2cnn(-c3cccc(F)c3)c2)c1)c1ncnc2nc(C3CCCC3)[nH]c12 [Example 46] , please. < 100 nM
